tested_system: T1, recombinant human DLL3 (human, UniProt Q9NYJ7 27-492)
T1 sequence: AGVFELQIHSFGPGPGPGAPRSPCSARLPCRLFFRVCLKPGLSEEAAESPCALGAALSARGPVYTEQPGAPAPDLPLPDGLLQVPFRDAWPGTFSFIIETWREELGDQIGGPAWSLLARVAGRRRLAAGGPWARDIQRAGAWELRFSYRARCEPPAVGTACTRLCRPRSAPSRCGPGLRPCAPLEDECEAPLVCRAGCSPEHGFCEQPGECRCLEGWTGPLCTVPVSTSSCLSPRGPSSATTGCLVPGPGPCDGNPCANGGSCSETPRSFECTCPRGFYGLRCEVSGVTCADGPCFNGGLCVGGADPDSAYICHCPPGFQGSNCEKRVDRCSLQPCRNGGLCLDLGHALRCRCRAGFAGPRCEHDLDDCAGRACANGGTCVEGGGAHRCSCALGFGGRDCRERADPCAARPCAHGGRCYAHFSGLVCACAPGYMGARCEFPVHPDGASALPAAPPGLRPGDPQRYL
assay_comment: Octet binning on SA sensor; Antibody A (biotinylated, loaded first): DL306-SG1; then 20 nM human DLL3, then 80 nM Antibody B
property: competition ratio (Antibody B to Antibody A)

{"binder": "DL306-SG1 (antibody, human IgG1, kappa, V domains shown, Variable regions of a previously reported anti-DLL3 antibody on SG1/SK1; Also used biotin-labelled as a first antibody) VH: EVQLQQSGPELVKPGASVKMSCRASGYTFTDYYMKWVKQSHGKSLEWIGDINPNNGDTFYNQKFKGKATLTIDKSSSTAYMQLNSLTSDDSAVYYCARDGNYAYFDYWGQGTTLTVSS VL: DIVLTQSPASLAVSLGQRATISCRASKSVSTSGYSYMHWYQQKPGQPPKLLIFLASNLESGVPARFSGSGSGTDFTLNIHPVEEEDAATYYCQHSRHLPWTFGGGTKLEIKR", "meas_value": 0}
{"binder": "DL309-SG1 (antibody, human IgG1, kappa, V domains shown, Variable regions of a previously reported anti-DLL3 antibody on SG1/SK1; Also used biotin-labelled as a first antibody) VH: QVQLQQSGGDLMKPGASVKISCKAAGYTFSNYYIEWVKQRPGHGLEWIGEILPGSGSTTYNEKFKGKASFTADTSSNTAYMQLSSLTSEDSAVYYCARWGAREPGFPYWGQGTLVTVSA VL: DIVMTQSQKFMSTSVGDRVSVTCKASQNVGTNVAWYQQKPGQSPKALIYSASYRYSGVPDRFTGSGSGTDFTLTISNVQSEDLAEYFCQQYNNYPLTFGAGTKLELKR", "meas_value": 1.4}

Numbers sourced from patent US20240150465A1.
